# assayed_target: T1, human EphA4 (Homo sapiens, UniProt P54764)
# T1 construct: made in house; not restated for the human SEAP-His protein
# T1 sequence (P54764 20-547): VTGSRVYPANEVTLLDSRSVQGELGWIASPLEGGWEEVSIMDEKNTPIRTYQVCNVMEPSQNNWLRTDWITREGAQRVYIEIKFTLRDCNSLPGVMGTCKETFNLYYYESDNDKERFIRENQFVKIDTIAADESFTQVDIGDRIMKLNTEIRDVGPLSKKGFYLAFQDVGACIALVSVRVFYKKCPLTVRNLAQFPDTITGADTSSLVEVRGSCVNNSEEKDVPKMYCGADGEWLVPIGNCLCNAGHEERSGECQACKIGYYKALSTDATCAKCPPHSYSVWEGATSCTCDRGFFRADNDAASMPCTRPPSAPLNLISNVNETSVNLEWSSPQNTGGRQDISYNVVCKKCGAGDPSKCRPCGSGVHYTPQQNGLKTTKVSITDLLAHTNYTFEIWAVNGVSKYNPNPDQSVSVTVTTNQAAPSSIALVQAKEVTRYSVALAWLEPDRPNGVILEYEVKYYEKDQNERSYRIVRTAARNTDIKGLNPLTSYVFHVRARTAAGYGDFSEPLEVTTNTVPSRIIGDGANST
# protocol_summary: Affinity of humanized antibodies by SPR (Biacore T200)
# Type: binding
# assay_conditions: human EphA4 extracellular region-SEAP-His; KD=kd/ka
endpoint_label: Kd (nM)
The reply should be a number in nM, with the unit left off.

Read off the recorded Kd for 142 (antibody, V domains shown, synthetic humanized antibody heavy chain variable region sequence; synthetic humanized antibody light chain variable region sequence) VH: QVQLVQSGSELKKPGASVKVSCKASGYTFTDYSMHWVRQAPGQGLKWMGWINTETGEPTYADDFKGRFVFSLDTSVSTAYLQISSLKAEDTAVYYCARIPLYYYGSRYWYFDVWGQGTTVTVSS VL: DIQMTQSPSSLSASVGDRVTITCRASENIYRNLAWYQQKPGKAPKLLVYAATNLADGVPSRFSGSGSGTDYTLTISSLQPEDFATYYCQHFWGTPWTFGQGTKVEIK 1.5

Source: patent US10428140B2
